- System: RARb homodimer (NR concentration 270 nM)
- measurement.description: PBM binding z-score (relative to random genomic background probes); higher = stronger binding; sequences stand for … in GC…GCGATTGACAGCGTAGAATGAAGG
experimental.readout: PBM binding z-score
Keep the answer to the number alone.

Previously resolved entries follow.
seq.string	assayed.target	experimental.readout	reported.measurement
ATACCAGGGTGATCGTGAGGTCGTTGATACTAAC	RARb homodimer (NR concentration 270 nM)	PBM binding z-score	1.83
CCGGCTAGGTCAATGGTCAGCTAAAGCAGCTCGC	RARb homodimer (NR concentration 270 nM)	PBM binding z-score	3.19

## Input If you can, please state the reported PBM binding z-score value of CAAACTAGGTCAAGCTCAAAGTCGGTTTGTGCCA .
## Output 3.34

## Input If you can, please state the reported PBM binding z-score value of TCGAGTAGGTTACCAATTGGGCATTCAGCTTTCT .
## Output -0.00589

## Input If you can, please state the reported PBM binding z-score value of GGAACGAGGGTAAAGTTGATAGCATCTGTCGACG .
## Output 0.332

## Input If you can, please state the reported PBM binding z-score value of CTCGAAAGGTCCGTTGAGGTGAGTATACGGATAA .
## Output 0.529

## Input If you can, please state the reported PBM binding z-score value of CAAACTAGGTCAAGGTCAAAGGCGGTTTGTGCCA .
## Output 5.02

## Input If you can, please state the reported PBM binding z-score value of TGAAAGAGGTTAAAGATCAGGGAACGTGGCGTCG .
## Output 1.1

## Input If you can, please state the reported PBM binding z-score value of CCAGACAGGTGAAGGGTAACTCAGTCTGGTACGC .
## Output 0.722

## Input If you can, please state the reported PBM binding z-score value of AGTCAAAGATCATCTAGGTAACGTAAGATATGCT .
## Output -0.47

## Input If you can, please state the reported PBM binding z-score value of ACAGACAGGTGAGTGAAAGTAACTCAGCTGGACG .
## Output -0.349

## Input If you can, please state the reported PBM binding z-score value of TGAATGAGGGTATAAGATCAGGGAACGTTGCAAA .
## Output -0.0361

## Input If you can, please state the reported PBM binding z-score value of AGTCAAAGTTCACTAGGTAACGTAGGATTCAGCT .
## Output 3.85

====

- Tested on: PXR:RXRa (NR concentration 270 nM, RXRa partner concentration 90 nM)
- measurement.description: PBM binding z-score (relative to random genomic background probes); higher = stronger binding; sequences stand for … in GC…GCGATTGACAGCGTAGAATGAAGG
Could you label it 1 if measured PBM binding z-score is 0.3 or higher, and 0 otherwise?

A selection of reference data follows.
seq.string	label.class
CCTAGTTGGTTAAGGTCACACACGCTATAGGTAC	1
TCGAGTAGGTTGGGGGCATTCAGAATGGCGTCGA	1
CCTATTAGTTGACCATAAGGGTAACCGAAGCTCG	1
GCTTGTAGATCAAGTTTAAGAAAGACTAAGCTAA	0
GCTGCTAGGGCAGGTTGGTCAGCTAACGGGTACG	0
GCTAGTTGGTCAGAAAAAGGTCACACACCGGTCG	1
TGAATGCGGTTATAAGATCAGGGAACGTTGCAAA	0
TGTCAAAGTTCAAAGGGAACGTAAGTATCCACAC	1

## Input # check: PBM binding z-score of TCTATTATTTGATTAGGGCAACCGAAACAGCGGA is greater than or equal to 0.3
## Output 1

## Input # check: PBM binding z-score of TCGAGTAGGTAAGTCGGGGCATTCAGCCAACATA is greater than or equal to 0.3
## Output 0

## Input # check: PBM binding z-score of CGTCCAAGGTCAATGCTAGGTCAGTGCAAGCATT is greater than or equal to 0.3
## Output 1

## Input # check: PBM binding z-score of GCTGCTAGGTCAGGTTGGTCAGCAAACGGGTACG is greater than or equal to 0.3
## Output 1
